Ref: patent US20250326813A1

Target: T1, human IL2Rα Fc fusion protein (human, UniProt P01589 22-213, limits assumed)
T1 construct: also called CD25; not shown: Fc part
T1 sequence (looked up): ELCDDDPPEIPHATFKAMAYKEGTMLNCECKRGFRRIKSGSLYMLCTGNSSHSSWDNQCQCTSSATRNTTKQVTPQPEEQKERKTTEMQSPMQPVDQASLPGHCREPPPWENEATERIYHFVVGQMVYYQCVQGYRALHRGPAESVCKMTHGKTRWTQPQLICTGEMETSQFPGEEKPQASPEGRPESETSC
Assay: ELISA, single concentration, anti-flag detection, E. coli-produced clone
readoutLabel: OD450 nm (OD450)

EP564 (clone 2021EP22-E11), E. coli-produced (ligand) APASSSTKKTQLQLEHLLLDLQMILNGINNYKNPKLTRMLTFKFYMPKKATELKHLQCLEEELKPLEEVLNLAQSKNFHLRFKALIIEINFIVQLLKGSETTFMCEYADETATIVEFLNRWITFSQSIISTLT
0.086

(A) EP565 (clone 2021EP22-F10), E. coli-produced (ligand) APASSSTKKTQLQLEHLLLDLQMILNGINNYKNPKLTRMLTFKFYMPKKATELKHLQCLEEELKPLEEVLNLAQSKNFHLRSRQLISNMNGIILKLKGSETTFMCEYADETATIVEFLNRWITFSQSIISTLT
(B) EP576 (clone 2021EP21-C10), E. coli-produced (ligand) APASSSTKKTQLQLEHLLLDLQMILNGINNYKNPKLTRMLTFKFYMPKKATELKHLQCLEEELKPLEEVLNLAQSKNFHLLPRNKISKTKVMVHELKGSETTFMCEYADETATIVEFLNRWITFSQSIISTLT
Select the item whose OD450 nm value is smaller, choosing between A and B . Mark your selection by writing its label.
A
